System: Escherichia coli (ML35)
Assay type: cell-based
reported_conditions: E. coli ML35; 1 × 10^7 CFU/mL; 1% TSB, 10 mM Hepes; 10, 20 and 30 μM peptide, 1 h at 37 °C; serial dilution, 18 h at 37 °C in complete TSB; turbidity; duplicate
No end group written: not given here.
As shown below, each of these substances has a reported Minimum Bactericidal Concentration value.
Please give a number only; it is taken to be in µM.

For orientation, consider the following solved cases.
substance: RRRRARRRRRR-NH2 [A5]
units_label: µM
Minimum Bactericidal Concentration: 20

substance: RRRRRPRRRRR-NH2 [P6]
units_label: µM
Minimum Bactericidal Concentration: 18

--- query ---
Minimum Bactericidal Concentration for RRRRRRLRRRR-NH2 [L7] is 9
